- Tested on: Amaranthus retroflexus (AMARE)
- EXPERIMENT_SUMMARY: Example B1 herbicidal action, post-emergence, 96-cell seed trays, climatic chamber
- Type: in vivo
- APPLIED_CONDITIONS: Application post-emergence, 1000 mg/l spray equivalent to 1000 g/ha, evaluated after 9 days
Decide by damage to plant, Amaranthus retroflexus (AMARE): equal to or exceeding 6 means true, less means false.

- STRUCTURE_SMILES_STRING: "CCn1c(=O)c(-c2c(C)cc(C)cc2C)c(OC(=O)C(C)C)c2nccnc21"
  DISCRETE_LABEL: "false"
- STRUCTURE_SMILES_STRING: "COCCn1c(=O)c(-c2c(F)ccc(F)c2Cl)c(OC(=O)C(C)C)c2nccnc21"
  DISCRETE_LABEL: "false"
- STRUCTURE_SMILES_STRING: "O=c1[nH]c2nccnc2c(O)c1-c1ccccc1C(F)(F)F"
  DISCRETE_LABEL: "false"
- STRUCTURE_SMILES_STRING: "CCn1c(=O)c(-c2c(Cl)ccc(C)c2F)c(OC(=O)C(C)C)c2nccnc21"
  DISCRETE_LABEL: "false"
- STRUCTURE_SMILES_STRING: "CC(=O)Oc1c(-c2c(Cl)cccc2Cl)c(=O)[nH]c2nccnc12"
  DISCRETE_LABEL: "true"

From here, focus on the item given below.
Q: Is damage to plant, Amaranthus retroflexus (AMARE) for O=c1[nH]c2nccnc2c(O)c1-c1ccc(F)cc1C(F)(F)F at or above 6?
A: true

* * *

- Tested on: Amaranthus retroflexus (AMARE)
- EXPERIMENT_SUMMARY: Example B1 herbicidal action, post-emergence, 96-cell seed trays, climatic chamber
- Format: in vivo
- APPLIED_CONDITIONS: Application post-emergence, 1000 mg/l spray equivalent to 1000 g/ha, evaluated after 9 days
TEST_READOUT: damage to plant, Amaranthus retroflexus (AMARE)
Give a plain numeric answer without units written out.

The following compounds have reported results that may help.
- STRUCTURE_SMILES_STRING: "CCn1c(=O)c(-c2c(F)ccc(F)c2F)c(OC(=O)C(C)C)c2nccnc21"
  OBSERVED_RESULT: 5
- STRUCTURE_SMILES_STRING: "O=c1[nH]c2nccnc2c(O)c1-c1ccccc1OC(F)(F)F"
  OBSERVED_RESULT: 5
- STRUCTURE_SMILES_STRING: "O=c1[nH]c2nccnc2c(O)c1-c1cccc(C(F)(F)F)c1Cl"
  OBSERVED_RESULT: 0

Q: So what's the measured damage to plant, Amaranthus retroflexus (AMARE) for this one? COc1c(Cl)cc(Cl)cc1-c1c(O)c2nccnc2[nH]c1=O
A: 7

Q: Same question for O=c1[nH]c2nccnc2c(O)c1-c1ccccc1Cl please.
A: 6

Q: Would you mind doing CCC(=O)Oc1c(-c2ccc(F)cc2Cl)c(=O)[nH]c2nccnc12 as well?
A: 8

Q: Param item: CC(C)C(=O)Oc1c(-c2ccc(F)cc2Cl)c(=O)n(C)c2nccnc12
A: 7

* * *

- Test system: Amaranthus retroflexus (AMARE)
- EXPERIMENT_SUMMARY: Example B2 herbicidal action, post-emergence, pots in glasshouse
- Type: in vivo
- APPLIED_CONDITIONS: Application post-emergence, evaluated after 13 days (100=total damage to plant; 0=no damage to plant)
// classify: if (damage to plant, Amaranthus retroflexus (AMARE) < 9) Criterion met else Criterion not met

- STRUCTURE_SMILES_STRING: "O=c1[nH]c2nccnc2c(O)c1-c1c(Cl)cc(OC(F)(F)F)cc1Cl"
  DISCRETE_LABEL: "Criterion met"

Q: Quick check: damage to plant, Amaranthus retroflexus (AMARE) of Cn1c(=O)c(-c2ccc(C(F)(F)F)cc2[N+](=O)[O-])c(OC(=O)C(C)(C)C)c2nccnc21 under 9?
A: Criterion met

Q: Follow-up item: Cc1cnc2c(OC(=O)C(C)(C)C)c(-c3c(F)ccc(F)c3Cl)c(=O)n(C)c2n1
A: Criterion met

Q: // repeat for Cn1c(=O)c(-c2c(F)ccc(Br)c2Cl)c(OC(=O)C(C)(C)C)c2nccnc21 and report
A: Criterion met

Q: # iterate: O=c1[nH]c2nccnc2c(O)c1-c1cc(F)c(Cl)cc1Cl
A: Criterion met

Q: Same thing, different compound: Cc1cc(C)c(-c2c(O)c3nccnc3n(C)c2=O)c(C)c1
A: Criterion not met

Q: Same question, O=c1[nH]c2nccnc2c(O)c1-c1cc(F)ccc1Cl this time
A: Criterion not met

Q: Further, for CCn1c(=O)c(-c2cc(F)ccc2Cl)c(OC(=O)C(C)(C)C)c2nccnc21 ?
A: Criterion met

Q: Follow-up entry: CCn1c(=O)c(-c2cc(F)c(Cl)cc2Cl)c(OC(=O)C(C)C)c2nccnc21
A: Criterion not met

Q: Ok, now Cc1ccc(C)c(-c2c(O)c3nccnc3[nH]c2=O)c1
A: Criterion met

Q: Do the same for CCn1c(=O)c(-c2c(Cl)cc(OC(F)(F)F)cc2Cl)c(OC(=O)C(C)(C)C)c2nccnc21 please
A: Criterion not met

Q: What about CCn1c(=O)c(-c2cc(OC(F)(F)F)ccc2OC)c(OC(=O)C(C)(C)C)c2nccnc21 ?
A: Criterion not met

Q: Same question, CC(C)C(=O)Oc1c(-c2cc(F)ccc2Cl)c(=O)n(C)c2nccnc12 this time
A: Criterion not met

Q: Another compound: CC(C)C(=O)Oc1c(-c2c(F)ccc(Br)c2Cl)c(=O)[nH]c2nccnc12
A: Criterion not met

Q: What would you report for CC(C)(C)C(=O)Oc1c(-c2ccccc2Br)c(=O)[nH]c2nccnc12 ?
A: Criterion met

Q: Then what about the compound CCn1c(=O)c(-c2c(F)ccc(Br)c2Cl)c(OC(=O)C(C)(C)C)c2nccnc21 ?
A: Criterion not met

Q: Please give the result for Cn1c(=O)c(-c2c(Cl)cc(OC(F)(F)F)cc2Cl)c(OC(=O)C(C)(C)C)c2nccnc21 too.
A: Criterion met

Q: And what about the compound CC(C)(C)C(=O)Oc1c(-c2ccc(C(F)(F)F)cc2[N+](=O)[O-])c(=O)[nH]c2nccnc12 ?
A: Criterion met

Q: Same read-out for CCn1c(=O)c(-c2c(Cl)cc(OC(F)(F)F)cc2Cl)c(O)c2nccnc21 ?
A: Criterion not met

Q: // repeat for CCn1c(=O)c(-c2cc(C)ccc2C)c(OC(=O)C(C)(C)C)c2nccnc21 and report
A: Criterion met

Q: Also CC(C)(C)C(=O)Oc1c(-c2ccccc2OC(F)F)c(=O)[nH]c2nccnc12 ?
A: Criterion met
